test system: Escherichia coli; test: Antimicrobial activity against Escherichia coli J53 harboring wild-type GyrA, ParC, GyrB genes by agar dilution method
Output yes (1) for records whose MIC is lower than 2 µg/mL, no (0) for records at or above 2 µg/mL.

Cc1cc(NS(=O)(=O)c2ccc(N)cc2)no1; no (0)
C[C@@H](O)[C@H]1C(=O)N2C(C(=O)O)=C(S[C@@H]3CN[C@H](C(=O)N(C)C)C3)[C@H](C)[C@H]12; yes (1)
NCC[C@H](O)C(=O)N[C@@H]1C[C@H](N)[C@@H](O[C@H]2O[C@H](CN)[C@@H](O)[C@H](O)[C@H]2O)[C@H](O)[C@H]1O[C@H]1O[C@H](CO)[C@@H](O)[C@H](N)[C@H]1O; yes (1)

Answer whether the compound `CO/N=C(\C(=O)N[C@@H]1C(=O)N2C(C(=O)O)=C(COC(C)=O)CS[C@H]12)c1csc(N)n1` has MIC strictly less than 2 µg/mL
yes (1)

====

test system: Enterobacter cloacae; assay: Antimicrobial activity against aac(6')-Ib-cr-negative Enterobacter cloacae FJ67T harboring qnrS gene by agar dilution method; format: functional
Recorded endpoint: MIC

Recorded MIC, per entry:
C[C@@H](O)[C@H]1C(=O)N2C(C(=O)O)=C(S[C@@H]3CN[C@H](C(=O)N(C)C)C3)[C@H](C)[C@H]12; 0.032 µg/mL
Cc1cc(NS(=O)(=O)c2ccc(N)cc2)no1; > 256 µg/mL

Which value of MIC has been reported for `NCC[C@H](O)C(=O)N[C@@H]1C[C@H](N)[C@@H](O[C@H]2O[C@H](CN)[C@@H](O)[C@H](O)[C@H]2O)[C@H](O)[C@H]1O[C@H]1O[C@H](CO)[C@@H](O)[C@H](N)[C@H]1O` in the records?
16 µg/mL

====

Each entry below lists one item and its recorded MIC value.
test system: Klebsiella pneumoniae; test: Antimicrobial activity against aac(6')-Ib-cr-positive Klebsiella pneumoniae JN41 harboring GyrA S83I, ParC S80I mutant, wild-type GyrB and qnrB genes by agar dilution method; assay type: functional

Cc1cc(NS(=O)(=O)c2ccc(N)cc2)no1; > 256 µg/mL

Lab note: need MIC for `CO[C@@]1(NC(=O)Cc2cccs2)C(=O)N2C(C(=O)O)=C(COC(N)=O)CS[C@@H]21` on Klebsiella pneumoniae, anyone have it?
4 µg/mL

Reported MIC for Klebsiella pneumoniae, given `CO/N=C(\C(=O)N[C@@H]1C(=O)N2C(C(=O)[O-])=C(C[N+]3(C)CCCC3)CS[C@H]12)c1csc(N)n1` ?
2 µg/mL

Notebook: pull reported MIC for Klebsiella pneumoniae, entry `C[C@@H](O)[C@H]1C(=O)N2C(C(=O)O)=C(S[C@@H]3CN[C@H](C(=O)N(C)C)C3)[C@H](C)[C@H]12`
0.032 µg/mL

So what MIC did `NCC[C@H](O)C(=O)N[C@@H]1C[C@H](N)[C@@H](O[C@H]2O[C@H](CN)[C@@H](O)[C@H](O)[C@H]2O)[C@H](O)[C@H]1O[C@H]1O[C@H](CO)[C@@H](O)[C@H](N)[C@H]1O` get with Klebsiella pneumoniae?
4 µg/mL

# get_value(readout= MIC, system= Klebsiella pneumoniae) for `C[C@H]1COc2c(N3CCN(C)CC3)c(F)cc3c(=O)c(C(=O)O)cn1c23.C[C@H]1COc2c(N3CCN(C)CC3)c(F)cc3c(=O)c(C(=O)O)cn1c23.O`
> 32 µg/mL

Query MIC on Klebsiella pneumoniae for `CC(C)(O/N=C(\C(=O)N[C@@H]1C(=O)N2C(C(=O)[O-])=C(C[n+]3ccccc3)CS[C@H]12)c1csc(N)n1)C(=O)O`
2 µg/mL

Hi! What's the reported MIC for `O=C(O)c1cn(C2CC2)c2cc(N3CCNCC3)c(F)cc2c1=O` on Klebsiella pneumoniae?
> 32 µg/mL

Enter reported MIC observed with Klebsiella pneumoniae for `CO/N=C(\C(=O)N[C@@H]1C(=O)N2C(C(=O)O)=C(COC(C)=O)CS[C@H]12)c1csc(N)n1`
32 µg/mL

====

Measured MIC of individual entries
test system: Citrobacter freundii; assay: Antimicrobial activity against aac(6')-Ib-cr-negative Citrobacter freundii JN64T harboring qnrA gene by agar dilution method; type: functional
Your answer should be a plain number; it is taken to be in µg/mL.

The cases that follow already have their MIC on record.
C[C@H]1COc2c(N3CCN(C)CC3)c(F)cc3c(=O)c(C(=O)O)cn1c23.C[C@H]1COc2c(N3CCN(C)CC3)c(F)cc3c(=O)c(C(=O)O)cn1c23.O [LEVOFLOXACIN]; 0.5
C[C@@H](O)[C@H]1C(=O)N2C(C(=O)O)=C(S[C@@H]3CN[C@H](C(=O)N(C)C)C3)[C@H](C)[C@H]12 [MEROPENEM]; 0.016
CO/N=C(\C(=O)N[C@@H]1C(=O)N2C(C(=O)O)=C(COC(C)=O)CS[C@H]12)c1csc(N)n1 [CEFOTAXIME]; 16

# get_value(readout='MIC', item= CO[C@@]1(NC(=O)Cc2cccs2)C(=O)N2C(C(=O)O)=C(COC(N)=O)CS[C@@H]21 [CEFOXITIN] )
8

====

system: Enterobacter cloacae; assay: Antimicrobial activity against aac(6')-Ib-cr-negative Enterobacter cloacae FJ67T harboring qnrS gene by agar dilution method; assay type: functional
Here the recorded MIC is given for each entry.
Please respond with the number in µg/mL and leave the unit unwritten.

# query: MIC | item `C[C@H]1COc2c(N3CCN(C)CC3)c(F)cc3c(=O)c(C(=O)O)cn1c23.C[C@H]1COc2c(N3CCN(C)CC3)c(F)cc3c(=O)c(C(=O)O)cn1c23.O` | system: Enterobacter cloacae
1

Recorded MIC for `CO[C@@]1(NC(=O)Cc2cccs2)C(=O)N2C(C(=O)O)=C(COC(N)=O)CS[C@@H]21` with Enterobacter cloacae, please?
4

Observed MIC on Enterobacter cloacae for `CO/N=C(\C(=O)N[C@@H]1C(=O)N2C(C(=O)O)=C(COC(C)=O)CS[C@H]12)c1csc(N)n1` , please.
64

Provide the documented MIC with Enterobacter cloacae as the system for `CC(C)(O/N=C(\C(=O)N[C@@H]1C(=O)N2C(C(=O)[O-])=C(C[n+]3ccccc3)CS[C@H]12)c1csc(N)n1)C(=O)O`
4

====

tested on: Enterobacter cloacae; assay: Antimicrobial activity against aac(6')-Ib-cr-negative Enterobacter cloacae FJ61 harboring GyrA S83I, GyrA D87A, ParC S80I mutant, wild-type GyrB and qnrS genes by agar dilution method; type: functional
Recorded endpoint: MIC (µg/mL)
Please reply with the bare figure in µg/mL and do not write the unit itself.

CO[C@@]1(NC(=O)Cc2cccs2)C(=O)N2C(C(=O)O)=C(COC(N)=O)CS[C@@H]21; 256

Suppose we examine the molecule `CO/N=C(\C(=O)N[C@@H]1C(=O)N2C(C(=O)O)=C(COC(C)=O)CS[C@H]12)c1csc(N)n1` ; what MIC value has been reported?
256

====

tested on: Enterobacter cloacae; assay: Antimicrobial activity against aac(6')-Ib-cr-negative Enterobacter cloacae FJ67 harboring […] and qnrS genes by agar dilution method; type: functional
Please note: MIC exactly at 8 µg/mL is 0 (no). Only values below 8 µg/mL get 1 (yes).

Solved entries:
Cc1cc(NS(=O)(=O)c2ccc(N)cc2)no1 [SULFAMETHOXAZOLE]; 0 (no)
CO/N=C(\C(=O)N[C@@H]1C(=O)N2C(C(=O)O)=C(COC(C)=O)CS[C@H]12)c1csc(N)n1 [CEFOTAXIME]; 0 (no)

Item CC(C)(O/N=C(\C(=O)N[C@@H]1C(=O)N2C(C(=O)[O-])=C(C[n+]3ccccc3)CS[C@H]12)c1csc(N)n1)C(=O)O [CEFTAZIDIME] : MIC beneath 8 µg/mL, strictly?
1 (yes)

# strict comparison: is reported MIC < 8 µg/mL? input = CO[C@@]1(NC(=O)Cc2cccs2)C(=O)N2C(C(=O)O)=C(COC(N)=O)CS[C@@H]21 [CEFOXITIN]
0 (no)

Hello, is MIC of the following compound strictly smaller than 8 µg/mL? C[C@@H](O)[C@H]1C(=O)N2C(C(=O)O)=C(S[C@@H]3CN[C@H](C(=O)N(C)C)C3)[C@H](C)[C@H]12 [MEROPENEM]
1 (yes)

Given NCC[C@H](O)C(=O)N[C@@H]1C[C@H](N)[C@@H](O[C@H]2O[C@H](CN)[C@@H](O)[C@H](O)[C@H]2O)[C@H](O)[C@H]1O[C@H]1O[C@H](CO)[C@@H](O)[C@H](N)[C@H]1O [AMIKACIN] , is recorded MIC strictly lower than 8 µg/mL?
0 (no)

====

system: Citrobacter freundii; assay: Antimicrobial activity against aac(6')-Ib-cr-negative Citrobacter freundii JN64T harboring qnrA gene by agar dilution method; format: functional
Recorded endpoint: MIC

Record excerpt, results attached:
CC(C)(O/N=C(\C(=O)N[C@@H]1C(=O)N2C(C(=O)[O-])=C(C[n+]3ccccc3)CS[C@H]12)c1csc(N)n1)C(=O)O; 2 µg/mL
CO/N=C(\C(=O)N[C@@H]1C(=O)N2C(C(=O)[O-])=C(C[N+]3(C)CCCC3)CS[C@H]12)c1csc(N)n1; 4 µg/mL

Moving on to the next compound.
Look up MIC for this compound: `NCC[C@H](O)C(=O)N[C@@H]1C[C@H](N)[C@@H](O[C@H]2O[C@H](CN)[C@@H](O)[C@H](O)[C@H]2O)[C@H](O)[C@H]1O[C@H]1O[C@H](CO)[C@@H](O)[C@H](N)[C@H]1O`
> 256 µg/mL

// data source = ChEMBL document CHEMBL1275556
